Quick list: AC50 per entry.
Test system: MYB mRNA
Test: Splicing RT-qPCR assay, MYB canonical (CJ) and alternative (AJ) junction mRNA
Type: cell-based, human
Settings: Homo sapiens, 24 h, A673 or K562 cells, 24 hours compound treatment, RT-qPCR; read-out: MYB AJ (AC50, increase in alternative junction mRNA)
value_kind: AC50

[
  {
    "compound": "Cc1cn2cc(NC(=O)c3ccc(N4CCNCC4)c4c3nnn4C)cc(F)c2n1 [Compound 436]",
    "obs_value": "100 to 1000 nM"
  },
  {
    "compound": "Cc1cn2nc(-c3ccc(C(=O)NC4CCNCC4)c4nn(C)cc34)cc(C)c2n1 [Compound 281]",
    "obs_value": "1000 to 10000 nM"
  },
  {
    "compound": "Cc1cn2nc(NC(=O)c3ccc(N4CCNCC4)c4cn(C)nc34)cc2c(C)n1 [Compound 247]",
    "obs_value": "> 10000 nM"
  },
  {
    "compound": "CN[C@@H]1CCN(c2ccc(C(=O)Nc3cn4cc(C)nc4c(Cl)n3)c3nn(C)cc23)C1 [Compound 614]",
    "obs_value": "100 to 1000 nM"
  }
]
